Examples of binders with documented pKd follow.
# assayed.target: T1, human programmed cell death protein 1 (hPD-1) C93S (aa 24-167) (Homo sapiens, UniProt Q15116, C93S)
# T1 construct: made as a fusion with a TEV site and human Fc; the Fc was cut off with TEV protease; source: Expi293F, purified (Protein A, TEV cleavage of Fc, SEC; monomer fractions); not shown: Fc (human), C-terminal, cleaved
# T1 sequence (Q15116 24-167 C93S): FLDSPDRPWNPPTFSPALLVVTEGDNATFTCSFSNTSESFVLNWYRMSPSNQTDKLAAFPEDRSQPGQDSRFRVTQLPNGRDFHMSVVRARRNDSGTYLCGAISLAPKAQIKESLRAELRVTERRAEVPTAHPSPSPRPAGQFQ
# test.name: SPR; Carterra LSA; Fab from the ammonium sulfate precipitate of the culture supernatant immobilised on a NiHC200M chip; hPD-1 (1-1024 nM) or mPD-1-Fc (4-1024 nM) as analyte, fourfold dilution series, no regeneration; HBS-EP pH 7.4, 25 °C; medians over the spots of a construct, KD = koff/kon
# conditions: one partner purified
pKd: −log10 of the molar value.
measurement.name: pKd

INSERT INTO measurements (binder, measurement_name, result) VALUES
  ('toripalimab Fab L.S32Y (Fab, V domains shown, as the heavy chain of Sm3; light chain of Sm3 with this change; numbers count from the chain''s first residue; source: Brevibacillus, culture supernatant (ammonium sulfate precipitate); not shown: 6xHis, C-terminal, kept; 6xHN, C-terminal, kept) VH: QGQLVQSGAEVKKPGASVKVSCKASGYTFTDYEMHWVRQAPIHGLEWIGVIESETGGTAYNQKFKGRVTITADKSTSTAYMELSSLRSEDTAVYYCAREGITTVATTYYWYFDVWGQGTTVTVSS VL: DVVMTQSPLSLPVTLGQPASISCRSSQSIVHYNGNTYLEWYLQKPGQSPQLLIYKVSNRFSGVPDRFSGSGSGTDFTLKISRVEAEDVGVYYCFQGSHVPLTFGQGTKLEIK', 'pKd', '> 9.17'),
  ('toripalimab Fab L.Q95Y (Fab, V domains shown, as the heavy chain of Sm3; light chain of Sm3 with this change; numbers count from the chain''s first residue; source: Brevibacillus, culture supernatant (ammonium sulfate precipitate); not shown: 6xHis, C-terminal, kept; 6xHN, C-terminal, kept) VH: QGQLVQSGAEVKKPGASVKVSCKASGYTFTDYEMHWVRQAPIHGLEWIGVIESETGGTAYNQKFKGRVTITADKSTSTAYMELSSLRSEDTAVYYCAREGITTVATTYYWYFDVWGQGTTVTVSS VL: DVVMTQSPLSLPVTLGQPASISCRSSQSIVHSNGNTYLEWYLQKPGQSPQLLIYKVSNRFSGVPDRFSGSGSGTDFTLKISRVEAEDVGVYYCFYGSHVPLTFGQGTKLEIK', 'pKd', 7.26),
  ('toripalimab Fab H.V114A (Fab, V domains shown, heavy chain of Sm3 with this change; numbers count from the chain''s first residue; as the light chain of Sm3; source: Brevibacillus, culture supernatant (ammonium sulfate precipitate); not shown: 6xHis, C-terminal, kept; 6xHN, C-terminal, kept) VH: QGQLVQSGAEVKKPGASVKVSCKASGYTFTDYEMHWVRQAPIHGLEWIGVIESETGGTAYNQKFKGRVTITADKSTSTAYMELSSLRSEDTAVYYCAREGITTVATTYYWYFDAWGQGTTVTVSS VL: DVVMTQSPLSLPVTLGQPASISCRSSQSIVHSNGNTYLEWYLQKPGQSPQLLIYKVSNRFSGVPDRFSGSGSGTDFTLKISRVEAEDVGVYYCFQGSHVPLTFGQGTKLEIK', 'pKd', '> 8.82');
